Biological target: T1, LRRK2 RocCOR domain construct (human, UniProt Q5S007 1334-1840)
T1 construct: A second construct (residues 1293-1840, N-terminal His6-MBP) was used in certain screening experiments; not shown: N-terminal Twin-Strep-tag; C-terminal His10-tag
T1 sequence: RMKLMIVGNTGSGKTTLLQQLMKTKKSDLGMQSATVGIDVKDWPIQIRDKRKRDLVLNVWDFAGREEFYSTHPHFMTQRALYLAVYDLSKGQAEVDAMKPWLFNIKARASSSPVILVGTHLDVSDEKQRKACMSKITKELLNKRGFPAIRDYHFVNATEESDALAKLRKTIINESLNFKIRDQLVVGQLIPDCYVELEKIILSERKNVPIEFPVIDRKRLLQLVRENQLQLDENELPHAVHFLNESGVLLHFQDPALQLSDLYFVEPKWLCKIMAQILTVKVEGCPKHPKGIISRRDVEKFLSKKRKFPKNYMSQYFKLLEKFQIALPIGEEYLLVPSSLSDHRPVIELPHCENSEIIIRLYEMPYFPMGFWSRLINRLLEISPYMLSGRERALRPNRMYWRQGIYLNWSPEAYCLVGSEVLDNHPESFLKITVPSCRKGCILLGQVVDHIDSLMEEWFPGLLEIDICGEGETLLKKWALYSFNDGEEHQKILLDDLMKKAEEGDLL
Assay: ELISA, purified Nb on coated domain constructs
Text: We recombinantly expressed and purified the RocCOR, Roc, COR-B and kinase-WD40 (K-WD40) domain constructs of LRRK2 (FIG. 7). Subsequently, we performed an ELISA in which all these domain constructs were coated in parallel next to each other in the same ELISA plate, and where we subsequently detected binding of the 42 purified Nbs. […] To enrich in Nbs directed against the Roc domain we specifically included a selection step with either Roc-GTPγS or Roc-GDP.
measurement_name: binding result

Nb39 (CA14134) (VHH) VHH: QVQLVESGGGLVQAGGSLRLSCRASGGTFSTYAMGWFRQVPGKERETVAAVKWSGDMTYYADSVKGRFTISRDNAKNTVYLQMNSLRPEDTAVYYCAARRGLSYYRGPSEYDYWGQGTQVTVSS: no binding
Nb17 (CA13606) (VHH) VHH: QVQLVESGGGLVQPGGSLRLSCAASGSNIGYMAWYRQAPGSQRELVARIASGGSANYADSVKGRFTISRDNVKNTVYLHMNSLKPVDTAVYYCHADAWYNSRWSDYWGQGTQVTVSS: no binding

Values were extracted from patent US20230087785A1.
